assay: yeast display, Sf9 membrane polyspecificity reagent, FACS + sequencing; frameworks hold sequencing errors
READOUT_KIND: polyreactivity (PSR sort gate)

Completed entries (count: 4):
QVQLVESGGGLVQAGGSLRLSCAASGRIFVLYTMGWYRQAPGKERELVAAISRRGGNTNYADSVKGRFTISRDNAKNTVYLQMNSLKPEDTAVYFCNARWTGARYYYYPMDYWGQGTQVTVSS :: high polyreactivity
QVQLVESGGGLVQAGGSLRLSCAASGSTFATYTMGWYRQAPGKERELVAAISVSGSRTYYADSVKGRFTISRDNAKNTVYLQMNSLKPEDTAVYYCNADPPVKLYLYDYWGQGTQVTVSS :: high polyreactivity
QVQLVESGGGLVQAGGSLRLSCVASGRTLNYNVMGWYRQAPGKERELVAAISWSGGSTYADSVKGRFTISRDNAKNTVYLQMNSLKPEDTAVYYCNKRFTTRVNRRPVYYWGQGTQVTVSS :: low polyreactivity
QVQLVESGGGLVQAGGSLRLSCAASGSTFPSNAMGGYRQAPGKARELDAAISDSGSTTYYADSVKGRFTISRDNAKNTVYLQMNSLKPEDTAVYYCNADWWQYDFVFWTFGYDDWGQGTQVTLSS :: low polyreactivity

Look up polyreactivity (PSR sort gate) of QVQIVESGGGLVQAGGSLRLSCAASGSIFTFYAMGWYRQAPGKERELVATINRIGGNTYYADSVKGRFTISRDNAKNTVYLQINSLKPEDTAVYYCAAKPTYRGYGYGSWGQGTQVTVSS and report it.
low polyreactivity

----------
assay: yeast display, Sf9 membrane polyspecificity reagent, FACS + sequencing; frameworks hold sequencing errors
READOUT_KIND: polyreactivity (PSR sort gate)

QVQLVESGVGLVQAGGSLRLSCAASGSTFGGYAMGWYRQAPGKERELVAAITSRSGRTYYADSVKGRFTISRDIAKNTVYLQMNSLKPEDTAVYYCATPQYPGRDYWGQGTQVTVSS :: high polyreactivity
QVQLVESGGGLGQAGGSLRLSCAASGRTFRLYAMGCYRQAPGKERELVASITSTGRTYYADSVKGRFTISRDNAKNTVYLQMNSLKPEDTAVYYCNAVALSNCEYDYWGQGTQVTVSS :: high polyreactivity
QVQLVESGGGLVQAGGSLRLSCAASGLNQANYAMVWYRQAPGQEREMVAAISSSGGSTYYADSVKGRFTISRDNAKNTVYLQMNSLKPEDTAVYYCAAYPLYRRSWTGDYWGQGTQVTVSS :: high polyreactivity
QVQLVESGGGLVQAGGSLRLSSAASGSIFSRYAMGWYRQAPGKEREMVAALNGRGSRTYYADSVKGRFTISRDNSKNTVYLLMNSLKPEDTAVYYCAAESYTAWELDYWGQGTQVTVSS :: high polyreactivity

Report polyreactivity (PSR sort gate), nothing else, for this sequence: QVQLVESGGGLVQAGGSLRISCAPSGSIFESNAMGWYRQAPGKERELVADITYRGTRTYYADSVKGRFTISRDNAKNTVYLQMNSLKPEDTAVYYCAVWQDHYDWGQGTQVTVSS
low polyreactivity

----------
assay: yeast display, Sf9 membrane polyspecificity reagent, FACS + sequencing; frameworks hold sequencing errors
READOUT_KIND: polyreactivity (PSR sort gate)

QVQLVESGGGLVQAGGSLRLSCAASGSTFDRYAMGWYRQAPGKERELVASISRSGGNTYYADSVKGRFTISRDNAKNTVYVPMNSLKPDDTAGYYSNKPIGRYSRNRYGYWGQATQVTVSS :: high polyreactivity
QVQLVESGGGLVQAGGSLRLSCAASGNIFGWYAMGWYRQAPGKERELVAAISSGGRTNYADSVKGRFTISRDNAKNTVYLQMNSLKPEDTAVYYCAVGLHKRPPPPRFRQYNYWGQGTQVTVSS :: low polyreactivity
QVQLVESGGGLVQAGGSLRLSCAASGITFKAYAMGWYRQAPGKERELVAAINTSGARTYYADSVKGRFTISRDNAKNTVYLQMNSLKTEDTAVYYCNARLHQQEGDDWGQGTQVTVSS :: low polyreactivity
QVQLVESGGGLVQAGGSLRLSGAASGRTFGYYAMGWYRQAPGKERELVAAISRGGSTYYADSVKGRFTISRDNAKNTVYLQMNSPKPEDTAVYYCAADYWGYGPEMGYWGQGTQVTVSS :: low polyreactivity
QVQLVESCGGLVQAGGSLRLICDDSGNTFNRYAMGWYRQAPGKERELVADITSGGRTYYAYSVKGRFTISRDNAKNTVYLQMNSVKPVDTAVYYCAGEWWDLGNFYWSYRYDYWGQCTQVTVSS :: high polyreactivity

Give a short answer stating reported polyreactivity (PSR sort gate) for QVQLVESGGGLVQAGGSLRLSCAASGFIFGYNAMGGYRLAPGKERELVAAISSYGGSPYYADSVKGRFTISRDNAKNTVYLQMNTLKPEDTAVYYWAARPVALRKYDYWGQGTQLTVSS .
low polyreactivity

Entry QVQLVESGGGLVQAGGSLRLSCAASGRTFTVYTMGWYRQAPGKERELVAVISTGGRTYYADSVKGRFTISRDNAKNTVYLQMNSLNPEDTAVYYCAAKFTREYYWGQGTQVTVSS needs its polyreactivity (PSR sort gate) filled in; supply it.
high polyreactivity

Return polyreactivity (PSR sort gate) (reported value) for this sequence: QVQLVESGGGLVQAGGSLRLSCAASGNIFAYYAMGWYRQAPGKERELVAAITDSGGNTFYADSVKGRFTISRDNAKNTVYLQMNSLKPEDTAVYYCAADPDGWGFVYPRYDYWGQGTQVTVSS
low polyreactivity

Provide one value: measured polyreactivity (PSR sort gate) of QVHLVESGGGLVQAGGSLRLSCAASGRIFSRNVMGWYRQAPGKERELVAAISSSGSTYADSVKGRFTISRDNAKNTVYLQMNSLKPEDTAVYYCAAVIYLWGQGTQVTVSS
high polyreactivity

Fill in reported polyreactivity (PSR sort gate) for this entry: QVQLVESGGGLVQAGGSLRLSCAASGSTFGINDMGWSRQAPGKEREFVAAISSTTDSTRYADSVKGRFTISRDNAKNTVYLQMNSLKPEDTAVYYCAAAPQFTFGVGYWGQGTQVTVSS
low polyreactivity

Determine from records and report polyreactivity (PSR sort gate) for QVRLVESGGGLVQAGGSLRLRCAASGSTFYTYAMGRYRQAPGKERELVAAITFIDGSTYYADSVKGRFTISRDNANNTVYLQMNSLKPEDTAVYYCAAASRGWGYPLYYSTDEYWGHGTQVTVSS
low polyreactivity

Report polyreactivity (PSR sort gate), nothing else, for this sequence: QVQHVDSGGGLVQAGGSLRLSCAASGIYVVYAMGWYRQAPGKERELVAAISSGVSTTYADSVKGRFTISRDNAKNTVYLQMNSLKPEDTAVYYCNTLWGHHYIVPYRTREFYYWGQGTQVTVSS
low polyreactivity

Please report the measured polyreactivity (PSR sort gate) for QVQLVESGGGLVQAGGSLRLSCAASGSIFSPYAMGWYRQAPGKERELVAAIRWGGGGTYADSVKGRFTISRDNAKNTVYLQMNSLKPEDTAVYYCAARRRSRRGYDYWGQGTQVTVSS
high polyreactivity

In one line, give reported polyreactivity (PSR sort gate) of the entry QVQLVESGGGLVQAGGSLRLSCAASGFTFRRYVMGWYRQAPGKERELVAAISSGGRTNYADSVKGRFTISRYNAKNTVYLQMNSLKPEDTAVYYCGYLDRYHHLRYWGQGTQVTVSS .
high polyreactivity

Indicate its recorded polyreactivity (PSR sort gate); the sequence in question is QVQLVESGGGLVQAGGSLRLSCAASGSIIGRNAMGWYRQAPGQEREMVAAISTRGGRTYYADSVKGRFTISRDNAKNNDYLQMNSLKPEDTAVYYCAAVGPYRWYDYWGQGTQVTVSS
high polyreactivity

----------
experiment: yeast display, Sf9 membrane polyspecificity reagent, FACS + sequencing; frameworks hold sequencing errors
READOUT_KIND: polyreactivity (PSR sort gate)

QVQLVESGGGLVQAGGSLRLSCAASGYTLKWYTMGWYRQAPGKERELVATIRRGGGTYYADSVKGRFTISRDNAKNTVYLQMNSLKPEDTAVYYCNARDRRRTNLLDYWGQGTQVTVSS :: low polyreactivity
QVQLVESGGGLVQAGGSLRLSCAASGRTFAVYAMGWYRQAPGKERELVAAISSTGGTYYADSVKGRFTISRDNAKNTVYLQMNSLKPEDTAVYYCAATFIQVVVNVQLYDYDYWGQGTQVTVSS :: low polyreactivity
QVQLVESGGGLVQAGGSLRLSCAASGFIFWVYAMGWYRQAPGKESELVAAITSGGRTYYADSEKGRFTISRDNAKNTVYLQMNSLKPEDTAVYYCAARWHYGYYSYYYWGQGTQVTVSS :: high polyreactivity
QVQLVESGGGLVQAGGSLRLSCAASGFIIDRNAMGWYRQAAGKERELVAAITSRGGSTYYADSVKGRFTISRDNAKNTVYLQMNSLKPEDTAVYYCNAGRRVSTYGYWGPGTQVTVSS :: high polyreactivity
QVQLVESGGGLDQAGVSLRLSCAASGSTFSANAMGWFRQAPGKERELVAAISSGDITYYADSVKGRFTISRDNAKNTVYLQMNSLKPEDTAVYYCAKYTRPTGNVDDGFEYWGQGTQVTVSS :: low polyreactivity

Quick one: give measured polyreactivity (PSR sort gate) for QVHLVESGGGLVQAGGSLRLICAASVFNLDWYVMGWNRQAPGKERQLVAAISSSGGRTYNADSVKGRFTISRDKAKNTVYLQMNSLKPEDTAVYYCAARNKYGGYPYGYDYWGQGTQVTVSS
high polyreactivity

Provide measured polyreactivity (PSR sort gate) value, entry: QVQLVDSGGGVVQAGLSLRLSCAASGRTFPGYAIGWYRQAPGKEMELVASITSRGGITYYADSVKGRFTISRDNAKITVYLQLNSLKPEDSAVYYCATDFAVTKMEYWGQGSQVTVSS
low polyreactivity

# return recorded polyreactivity (PSR sort gate) for entry QVQLVESGGGLVQAGGSLRLSCAASGRNFSLYAMGWYRQAPGKERELVAAISWSGGNTYYADSVKGRFTISRDNAKNTVYLQMNSLKPEDTAVYYCNTVSYRGDWNPSKYYYWGQGTQVTLSS
high polyreactivity

Given QVQLVDSGRGLVQAGGSLRLSCAASGSIFDNYAMGSYRQAPGNERELVAAISGRGGSTYYADSVKGRFTISRDNAKNTVYLQMNSLKPEDTAVSYCNALVHQTYYDYDDWGHGTQVTVSS , respond with its polyreactivity (PSR sort gate).
high polyreactivity

Given QVQLVESGGGLVQAGGSLRLSCAASGSIYPFYAMGWYRQAPGKERELVATISSGDSTHYADSVKGRFTISRDNAKNTVYEQMNSLKPEDTAVYYCNRRNKAQRFFDLGYWGQGTQVTVSS , respond with its polyreactivity (PSR sort gate).
low polyreactivity

Supply reported polyreactivity (PSR sort gate) belonging to this sequence: QVQLVESGGGLLQAGGSLRLSCAASGITFQGYAMGWYRQAPGKERELVAAITYRGGSTYYADSVKGRFTISRDNAKNTVYLQMNSLKPEDTAVYYCARDHSRHLHPSWLDYWGQGTQVTVSS
high polyreactivity
